Measured values drawn from ChEMBL document CHEMBL1148054 for this set.

System: SK-MEL
protocol: Cytotoxicity against human SK-MEL cells
Format: functional
testContext: read-out: ED50 (the source's name)
Listing of recorded pEC50 by entry.
Hey, just a heads up that pEC50 is the negative log base 10 of the concentration in molar.

| molecule | pEC50 |
| --- | --- |
| CC(C)C(=O)CCC1(C)C=Cc2c(c3ccccc3n(C)c2=O)O1 (configuration not stated) | 4.44 |

Need pEC50 of CC(C)=CCCC1(C)C=Cc2c(c3ccccc3n(C)c2=O)O1 (configuration not stated) , thanks.
4.55

###

System: Col2
protocol: Cytotoxicity against human Col2 cells
Format: functional
testContext: read-out: ED50 (the source's name)
recordedEndpoint: pEC50
Hey, just a heads up that pEC50 is the negative log base 10 of the concentration in molar.

Need pEC50 of CC(C)=CCCC1(C)C=Cc2c(c3ccccc3n(C)c2=O)O1 (configuration not stated) , thanks.
4.52
